For each record, write down the corresponding Response (RU).
Experimental target: T1, human B7-H4 protein, with His tag (MALS verified) (human, UniProt Q7Z7D3 29-258, limits assumed)
T1 construct: Bought protein
T1 sequence (looked up): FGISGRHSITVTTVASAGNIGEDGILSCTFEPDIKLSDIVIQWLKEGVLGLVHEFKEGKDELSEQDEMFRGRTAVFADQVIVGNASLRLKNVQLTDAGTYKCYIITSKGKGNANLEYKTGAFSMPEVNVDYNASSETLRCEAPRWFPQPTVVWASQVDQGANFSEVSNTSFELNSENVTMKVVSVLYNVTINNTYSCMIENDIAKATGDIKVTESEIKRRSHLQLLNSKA
Protocol summary: SPR (Biacore T200), antibody captured on Protein A chip, response at 200 nM antigen
Method: The anti-human B7-H3 antibodies were tested for their binding capability to B7 family proteins by SPR using Biacore T200 biosensor (Biacore, US) provided with a pre-fixed Protein A sensor chip. The dissociation was monitored for 600 sec. […]
Unit RU implied. Number only.

Ask | Name the recorded Response (RU) for Enoblituzumab (antibody, human IgG1, kappa, V domains shown, Humanized anti-B7-H3 antibody of MacroGenics with optimised Fc, used as the positive control; also called AbEno; enoblituzumab-IgG1-Mut) VH: EVQLVESGGGLVQPGGSLRLSCAASGFTFSSFGMHWVRQAPGKGLEWVAYISSDSSAIYYADTVKGRFTISRDNAKNSLYLQMNSLRDEDTAVYYCGRGRENIYYGSRLDYWGQGTTVTVSS VL: DIQLTQSPSFLSASVGDRVTITCKASQNVDTNVAWYQQKPGKAPKALIYSASYRYSGVPSRFSGSGSGTDFTLTISSLQPEDFATYYCQQYNNYPFTFGQGTKLEIKR .
Reply | -2

Ask | Name the recorded Response (RU) for 10D7 (antibody, human IgG1, kappa, V domains shown, also called 10D7-WT; Ab10D7) VH: QVQLVQSGPGLVKPSETLSLTCTVSGGSISRSSYYWGWIRQPPGKGLEWIGNIFYAGSTYYNPSLKSRVTISVDTSKNQFSLKLSSVTAADTAVYYCARRITGTTGWFDPWGQGTLVTVSS VL: DIQLTQSPSSLSASVGDRVTITCRASQGIRNDLGWYQQKPGKAPKLLIYAASTLQSGVPSRFSGSGSGTDFTLTISSLQPEDFATYYCLQDYNYPRTFGQGTKVEIKR .
Reply | 0.3

Ask | Name the recorded Response (RU) for 10F5 (antibody, human IgG1, kappa, V domains shown, also called Ab10F5) VH: QVQLVQSGAEVKKPGSSVKVSCKASGGTFSSQAISWVRQAPGQGLEWMGRIIPMLGIGDYAQSFQGRVTITADKSTSTAYLEVSSLGSEDTAVYYCAREGIAALGTNYYYGMDVWGQGTAVTVSS VL: EIVMTQSPSSVSASVGDRVTITCRASQGISRWLAWYQQKPGKAPKLLIYVASSLQSGVPSRFSGSGSGTDFTLTISSLQPEDFATYYCQQANSFPFTFGPGTKVDIRR .
Reply | 0.3

Ask | Name the recorded Response (RU) for 6B5 (antibody, human IgG1, kappa, V domains shown, also called 6B5-WT; Ab6B5) VH: QVQLVESGPGLVKPSQTLSLTCTVSDGSISSGGYYWSWIRQHPGKGLEWIGYIYYSGGTYYSPSLKSRVTISVDTSKNQFSLKLTSVTAADTAVYYCARRAGYSSSFDSWGQGILVTVSS VL: EIVLTQSPLSLPVTPGEPASISCRSSQSLLYSNGYTYLDWYLQKPGQSPQFLIYLGFNRASGVPDRFSGSGSGTDFTLKISRVEAEDVGVYYCMQGLQTPYTFGQGTKLEIKR .
Reply | 0.5
